Target: human HDAC2 (Homo sapiens)
Construct: Full length human HDAC2 was subcloned; Flag (C); His6 (from pAcHLT-A vector; purified on Ni-NTA) (N)
Sequence (Q92769 whole entry): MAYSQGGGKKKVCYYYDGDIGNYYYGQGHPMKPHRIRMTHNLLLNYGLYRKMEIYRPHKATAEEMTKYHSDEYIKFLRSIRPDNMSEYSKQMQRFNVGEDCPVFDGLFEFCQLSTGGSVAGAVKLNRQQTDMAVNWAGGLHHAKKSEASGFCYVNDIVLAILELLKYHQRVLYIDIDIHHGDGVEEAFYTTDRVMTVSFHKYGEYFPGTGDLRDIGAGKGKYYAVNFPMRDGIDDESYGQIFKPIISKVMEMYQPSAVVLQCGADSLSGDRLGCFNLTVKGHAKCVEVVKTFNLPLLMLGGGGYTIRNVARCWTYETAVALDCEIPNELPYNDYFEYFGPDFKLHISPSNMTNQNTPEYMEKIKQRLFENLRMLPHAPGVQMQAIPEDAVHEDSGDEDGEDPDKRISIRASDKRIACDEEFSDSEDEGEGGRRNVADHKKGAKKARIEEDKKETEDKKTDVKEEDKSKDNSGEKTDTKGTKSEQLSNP
Assay: Primary assay: deacetylase activity, recombinantly produced HDAC2
Details: recombinant HDAC2; read-out: HDAC Inhibition (IC50 unless otherwise specified) HDAC2
pIC50: −log10 of the molar value.
Listed next: entries and their corresponding pIC50.

[
  {
    "molecule": "O=C(/C=C/c1ccc2c(c1)OCO2)NCCCCCC(=O)NO",
    "pIC50": 7.16
  },
  {
    "molecule": "O=C(/C=C/C=C/c1ccc(-c2ccccc2)cc1)NCCCCCC(=O)NO",
    "pIC50": 7.25
  },
  {
    "molecule": "O=C(CCCCCNC(=O)c1ccccc1)NO [PX083449, N-(5-Hydroxycarbamoyl-pentyl)-benzamide]",
    "pIC50": 6.16
  }
]

###

Target: human HDAC1 (Homo sapiens)
Construct: Full length human HDAC1 was cloned by PCR; Flag (C); His6 (from pAcHLT vector; purified on Ni-NTA) (N)
Sequence (Q13547 whole entry): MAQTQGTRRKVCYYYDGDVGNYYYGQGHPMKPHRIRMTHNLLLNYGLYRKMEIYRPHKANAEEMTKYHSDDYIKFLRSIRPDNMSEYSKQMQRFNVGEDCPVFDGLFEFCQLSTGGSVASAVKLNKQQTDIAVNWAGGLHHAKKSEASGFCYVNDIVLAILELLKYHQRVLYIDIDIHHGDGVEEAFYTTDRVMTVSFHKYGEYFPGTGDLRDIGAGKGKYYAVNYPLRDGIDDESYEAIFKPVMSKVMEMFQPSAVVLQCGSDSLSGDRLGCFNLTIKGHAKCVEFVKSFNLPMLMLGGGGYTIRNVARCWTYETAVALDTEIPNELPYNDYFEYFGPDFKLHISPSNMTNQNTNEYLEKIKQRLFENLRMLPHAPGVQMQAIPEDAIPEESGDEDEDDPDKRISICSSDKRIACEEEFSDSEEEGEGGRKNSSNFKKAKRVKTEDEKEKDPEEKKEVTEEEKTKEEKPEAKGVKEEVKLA
Assay: Primary assay: deacetylase activity, recombinantly produced HDAC1
Conditions: recombinant HDAC1; read-out: HDAC Inhibition (IC50 unless otherwise specified) HDAC1

[
  {
    "recordSmiles": "COc1ccc(C(=O)NCCCCCC(=O)NO)cc1",
    "IC50 [nM]": 250
  },
  {
    "recordSmiles": "O=C(CCCCCNC(=O)c1nc2ccccc2[nH]1)NO",
    "IC50 [nM]": 69
  },
  {
    "recordSmiles": "O=C(/C=C/C=C/c1ccc(Cl)cc1)NCCCCCC(=O)NO",
    "IC50 [nM]": 25
  },
  {
    "recordSmiles": "CC(/C=C/C(=O)NCCCCCC(=O)NO)=C\\c1ccccc1",
    "IC50 [nM]": 31
  },
  {
    "recordSmiles": "O=C(CCCCCNC(=O)C(c1ccccc1)c1ccccc1)NO",
    "IC50 [nM]": 4000
  },
  {
    "recordSmiles": "O=C(/C=C/C#Cc1ccccc1)NCCCCCC(=O)NO",
    "IC50 [nM]": 37
  },
  {
    "recordSmiles": "O=C(/C=C/C=C/c1ccccc1)NCCCCCCCC(=O)NO",
    "IC50 [nM]": 12
  },
  {
    "recordSmiles": "O=C(/C=C\\C=C\\c1ccc(Cl)cc1)NCCCCCC(=O)NO",
    "IC50 [nM]": 50
  },
  {
    "recordSmiles": "O=C(/C=C/c1cccc(NC(=O)/C=C/c2ccccc2)c1)NO",
    "IC50 [nM]": 438
  },
  {
    "recordSmiles": "O=C(/C=C/C=C/c1ccc(-c2ccccc2)cc1)NCCCCCC(=O)NO",
    "IC50 [nM]": 25
  },
  {
    "recordSmiles": "O=C(/C=C/C=C/c1ccccc1)NCCCCCC(=O)NO",
    "IC50 [nM]": 38
  },
  {
    "recordSmiles": "O=C(/C=C/c1ccc2c(c1)OCO2)NCCCCCC(=O)NO",
    "IC50 [nM]": 64
  },
  {
    "recordSmiles": "CN(C)c1ccc(C(=O)NCCCCCC(=O)NO)c2ccccc12",
    "IC50 [nM]": 175
  }
]

###

Reported melting point values for the following compounds.

[
  {
    "compound": "O=C(CCCCCC(=O)NCCc1c[nH]c2ccccc12)NO",
    "melting point": "140 to 142 °C"
  },
  {
    "compound": "CC(/C=C/C(=O)NCCCCCC(=O)NO)=C\\c1ccccc1",
    "melting point": "129 to 131 °C"
  },
  {
    "compound": "O=C(CCCCCNC(=O)[C@H](Cc1c[nH]c2ccccc12)NC(=O)CCCc1ccccc1)NO",
    "melting point": "106 to 108 °C"
  },
  {
    "compound": "O=C(CCCCCCC(=O)NCCCc1ccccc1)NO",
    "melting point": "97 to 98 °C"
  },
  {
    "compound": "O=C(CCCCCCC(=O)NCC(O)c1ccccc1)NO (centres unmarked)",
    "melting point": "100 to 102 °C"
  }
]

###

Test system: HeLa cells
Experiment: Secondary assay: cell proliferation WST-1, HeLa
Format: cell-based
Settings: Homo sapiens, 48 h, read-out: Cell Proliferation Inhibition WST-1 (IC50 unless otherwise specified) HeLa
pIC50: −log10 of the molar value.
Collected pIC50 values appear next to each entry.

[
  {
    "compound": "O=C(C=C(c1ccccc1)c1ccccc1)NCCCCCC(=O)NO [PX117436]",
    "readoutRelation": "=",
    "pIC50": 5.07
  },
  {
    "compound": "O=C(C#Cc1ccccc1)NCCCCCC(=O)NO [PX117415]",
    "readoutRelation": "=",
    "pIC50": 4.96
  },
  {
    "compound": "C/C(=C\\C#Cc1ccccc1)C(=O)NCCCCCC(=O)NO [PX117451]",
    "readoutRelation": "=",
    "pIC50": 4.66
  },
  {
    "compound": "O=C(CCCCCC(=O)Nc1ccc2ccccc2c1)NO [PX117461]",
    "readoutRelation": "<",
    "pIC50": 5.30
  },
  {
    "compound": "O=C(/C=C/C=C/c1ccccc1Cl)NCCCCCC(=O)NO [PX117255]",
    "readoutRelation": "=",
    "pIC50": 4.74
  },
  {
    "compound": "O=C(/C=C/C=C(c1ccccc1)c1ccccc1)NCCCCCC(=O)NO [PX117437]",
    "readoutRelation": "=",
    "pIC50": 5.43
  },
  {
    "compound": "O=C(/C=C/C=C/c1ccccc1[N+](=O)[O-])NCCCCCC(=O)NO [PX105830]",
    "readoutRelation": "=",
    "pIC50": 4.85
  },
  {
    "compound": "O=C(CCCCCNC(=O)CCCCc1ccccc1)NO [PX117261]",
    "readoutRelation": "=",
    "pIC50": 4.15
  },
  {
    "compound": "CN(C)c1ccc(C(=O)NCCCCC(=O)NO)c2ccccc12 [PX082534]",
    "readoutRelation": "=",
    "pIC50": 4.62
  },
  {
    "compound": "O=C(CCCCCNC(=O)CC/C=C\\c1ccccc1)NO [PX117444]",
    "readoutRelation": "=",
    "pIC50": 4.35
  }
]

###

// values below are reported melting point
experimentalEndpoint: melting point

[
  {
    "recordSmiles": "O=C(/C=C/C#Cc1ccccc1)NCCCCCC(=O)NO",
    "experimentalEndpoint": "melting point",
    "reportedValue": "146 to 148 °C"
  },
  {
    "recordSmiles": "CC(=C\\c1ccccc1)/C=C(\\C)C(=O)NCCCCCC(=O)NO",
    "experimentalEndpoint": "melting point",
    "reportedValue": "120 to 122 °C"
  },
  {
    "recordSmiles": "O=C(/C=C/C=C/c1ccccc1)NCCCCCCC(=O)NO",
    "experimentalEndpoint": "melting point",
    "reportedValue": "147 to 149 °C"
  },
  {
    "recordSmiles": "CN(C)c1ccc(C(=O)NCCCCC(=O)NO)c2ccccc12",
    "experimentalEndpoint": "melting point",
    "reportedValue": "129 °C"
  },
  {
    "recordSmiles": "O=C(/C=C/c1cccc(NC(=O)/C=C/c2ccccc2)c1)NO",
    "experimentalEndpoint": "melting point",
    "reportedValue": "178 °C"
  },
  {
    "recordSmiles": "O=C(CCCCCCNC(=O)c1ccc2ccccc2c1)NO",
    "experimentalEndpoint": "melting point",
    "reportedValue": "136 to 137 °C"
  },
  {
    "recordSmiles": "O=C(CCCCCCC(=O)Nc1ccc(-c2ccccc2)cc1)NO",
    "experimentalEndpoint": "melting point",
    "reportedValue": "227 to 229 °C"
  },
  {
    "recordSmiles": "O=C(CCCCCNC(=O)c1nc2ccccc2[nH]1)NO",
    "experimentalEndpoint": "melting point",
    "reportedValue": "201 °C (dec.)"
  },
  {
    "recordSmiles": "N#Cc1ccc(C(=O)NCCCCCC(=O)NO)cc1",
    "experimentalEndpoint": "melting point",
    "reportedValue": "234 to 236 °C"
  },
  {
    "recordSmiles": "O=C(CCCCCNC(=O)C(c1ccccc1)c1ccccc1)NO",
    "experimentalEndpoint": "melting point",
    "reportedValue": "55 to 56 °C"
  }
]

###

[
  {
    "compound": "O=C(CCCCCNC(=O)c1ccco1)NO [PX105826]",
    "melting point": "113.5 to 115 °C"
  },
  {
    "compound": "O=C(CCCCCNC(=O)C/C=C/c1ccccc1)NO [PX116211]",
    "melting point": "127 to 128 °C"
  },
  {
    "compound": "CN(CCCCCC(=O)NO)C(=O)/C=C/C=C/c1ccccc1 [PX116234]",
    "melting point": "145 to 147 °C"
  },
  {
    "compound": "CN(C)c1ccc(/C=C/C=C/C(=O)NCCCCCC(=O)NO)cc1 [PX106527]",
    "melting point": "172 to 174 °C"
  },
  {
    "compound": "O=C(CCCCCNC(=O)Cc1c[nH]c2ccccc12)NO [PX116214]",
    "melting point": "130 to 131.5 °C"
  },
  {
    "compound": "O=C(CCCCCCC(=O)NCC(c1ccccc1)c1ccccc1)NO [PX117249]",
    "melting point": "123 to 123.5 °C"
  },
  {
    "compound": "O=C(CCCCCNC(=O)CC/C=C/c1ccccc1)NO [PX117797]",
    "melting point": "131 to 133 °C"
  },
  {
    "compound": "CC(C)(C)c1ccc(C(=O)NCCCCCC(=O)NO)cc1 [PX106496]",
    "melting point": "150 to 151.5 °C"
  }
]
